# credit: ChEMBL document CHEMBL1148814

biological target: Cholinesterase (Homo sapiens)
pIC50: −log10 of the molar value.
Response key: Fulfilled means pIC50 >= 6; Not fulfilled means pIC50 < 6.

Examples with answers:
- smiles.record: "CCN(CCCNC1=CC(=O)C(NCCCN(CC)Cc2ccccc2OC)=CC1=O)Cc1ccccc1OC"
  class.label: "Not fulfilled"
- smiles.record: "CCN(CCCCCCNC1=CC(=O)C(NCCCCCCN(CC)Cc2cccc(OC)c2)=CC1=O)Cc1cccc(OC)c1"
  class.label: "Not fulfilled"
- smiles.record: "CCN(CCCCCCNC1=CC(=O)C(NCCCCCCN(CC)CCc2ccccc2OC)=CC1=O)CCc1ccccc1OC"
  class.label: "Fulfilled"
- smiles.record: "CCN(CCCCCCNC1=CC(=O)C(NCCCCCCN(CC)Cc2ccc(OC)cc2)=CC1=O)Cc1ccc(OC)cc1"
  class.label: "Not fulfilled"

// query # bool: pIC50 of CCN(CCCCCCNC1=CC(=O)C(NCCCCCCN(CC)Cc2ccccc2[N+](=O)[O-])=CC1=O)Cc1ccccc1[N+](=O)[O-] >= 6
// result Not fulfilled

* * *

Parameter 'readout' = IC50; parameter 'system' = Cholinesterase (Homo sapiens, UniProt P06276).
Sequence (P06276 whole entry): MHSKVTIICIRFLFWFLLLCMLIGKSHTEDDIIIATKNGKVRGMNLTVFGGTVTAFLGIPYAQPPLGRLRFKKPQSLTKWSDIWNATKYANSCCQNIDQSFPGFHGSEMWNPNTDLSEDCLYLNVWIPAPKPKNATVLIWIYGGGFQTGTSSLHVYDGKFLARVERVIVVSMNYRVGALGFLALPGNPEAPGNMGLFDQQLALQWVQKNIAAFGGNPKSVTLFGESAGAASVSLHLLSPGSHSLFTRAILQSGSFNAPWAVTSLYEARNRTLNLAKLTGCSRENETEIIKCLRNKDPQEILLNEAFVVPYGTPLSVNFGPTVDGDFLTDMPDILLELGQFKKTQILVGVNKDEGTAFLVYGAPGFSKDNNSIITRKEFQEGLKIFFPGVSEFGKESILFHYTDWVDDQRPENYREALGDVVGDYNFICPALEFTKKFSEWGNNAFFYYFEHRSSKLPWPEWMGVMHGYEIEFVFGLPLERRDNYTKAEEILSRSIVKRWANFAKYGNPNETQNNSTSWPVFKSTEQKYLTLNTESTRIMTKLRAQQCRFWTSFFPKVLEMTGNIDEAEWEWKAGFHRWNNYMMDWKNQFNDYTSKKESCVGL
# output: bare number, implied unit µM

// query Name the recorded IC50 for CCN(Cc1ccccc1OC)C(=O)CCCCCNC1=CC(=O)C(NCCCCCC(=O)N(CC)Cc2ccccc2OC)=CC1=O .
// result 18.5

// query Name the recorded IC50 for CCN(CCCCCCNC1=CC(=O)C(NCCCCCCN(CC)Cc2cccnc2)=CC1=O)Cc1cccnc1 .
// result 11.9

// query Name the recorded IC50 for CCN(CCCCNC1=CC(=O)C(NCCCCN(CC)Cc2ccccc2OC)=CC1=O)Cc1ccccc1OC .
// result 12.8

* * *

target: Acetylcholinesterase (Homo sapiens)
pIC50: −log10 of the molar value.
Class key for pIC50 values: band A (below 7), band B (7 to below 8), band C (8 or more)

Examples with answers:
- smiles.record: "CCN(Cc1ccccc1OC)C(=O)CCCCCNC1=CC(=O)C(NCCCCCC(=O)N(CC)Cc2ccccc2OC)=CC1=O"
  class.label: "band A"
- smiles.record: "CCN(CCCCCCNC1=CC(=O)C(NCCCCCCN(CC)CCc2ccccc2OC)=CC1=O)CCc1ccccc1OC"
  class.label: "band B"
- smiles.record: "CCN(CCCCCCNC1=C(Cl)C(=O)C(NCCCCCCN(CC)Cc2ccccc2OC)=C(Cl)C1=O)Cc1ccccc1OC"
  class.label: "band C"
- smiles.record: "CCN(CCCCCCNC1=CC(=O)C(NCCCCCCN(CC)Cc2ccncc2)=CC1=O)Cc1ccncc1"
  class.label: "band A"
- smiles.record: "CCN(CCCCCNC1=CC(=O)C(NCCCCCN(CC)Cc2ccccc2OC)=CC1=O)Cc1ccccc1OC"
  class.label: "band C"
- smiles.record: "CCN(CCCCCCNC1=CC(=O)C(NCCCCCCN(CC)Cc2cccs2)=CC1=O)Cc1cccs1"
  class.label: "band B"

// query Assign a category based on measured pIC50 for CCN(CCCCCCNc1ccc(NCCCCCCN(CC)Cc2ccccc2OC)cc1)Cc1ccccc1OC and give only the class name.
// result band B

* * *

Parameter 'readout' = pIC50; parameter 'system' = Cholinesterase (Homo sapiens).
As a rule, pIC50 stands for the negative log10 of the concentration, concentration in M.

Example entries and their recorded answers appear below.
- smiles.record: "CCN(CCCCCCNC1=CC(=O)C(NCCCCCCN(CC)Cc2ccccn2)=CC1=O)Cc1ccccn1"
  pIC50: 5.61
- smiles.record: "CCN(CCCCCCNC1=CC(=O)C(NCCCCCCN(CC)Cc2cccs2)=CC1=O)Cc1cccs1"
  pIC50: 5.55
- smiles.record: "CCN(CCCCCCNc1ccc(NCCCCCCN(CC)Cc2ccccc2OC)cc1)Cc1ccccc1OC"
  pIC50: 6.30

Okay, next one:
// query Recall the recorded pIC50 for CCN(CCCCCCNC1=C(c2ccccc2)C(=O)C(NCCCCCCN(CC)Cc2ccccc2OC)=C(c2ccccc2)C1=O)Cc1ccccc1OC with Cholinesterase (Homo sapiens) and state it.
// result 5.65

* * *

biological target: Cholinesterase (Homo sapiens, UniProt P06276)
Listed here are compounds together with their documented IC50.
# output: bare number, implied unit nM

Example entries and their recorded answers appear below.
- smiles.record: "CCN(CCCCCCNC1=C(Br)C(=O)C(NCCCCCCN(CC)Cc2ccccc2OC)=C(Br)C1=O)Cc1ccccc1OC"
  result.unit: "nM"
  result: 696
- smiles.record: "CCN(CCCCCCNC1=C(Cl)C(=O)C(NCCCCCCN(CC)Cc2ccccc2OC)=C(Cl)C1=O)Cc1ccccc1OC"
  result.unit: "nM"
  result: 800

Okay, next one:
// query Name the recorded IC50 for COc1ccccc1CN(CCCCCCNC1=CC(=O)C(NCCCCCCN(Cc2ccccc2OC)C(C)C)=CC1=O)C(C)C .
// result 660

* * *

Parameter 'readout' = log10 IC50; parameter 'system' = Acetylcholinesterase (Homo sapiens, UniProt P22303).
Sequence (P22303 whole entry): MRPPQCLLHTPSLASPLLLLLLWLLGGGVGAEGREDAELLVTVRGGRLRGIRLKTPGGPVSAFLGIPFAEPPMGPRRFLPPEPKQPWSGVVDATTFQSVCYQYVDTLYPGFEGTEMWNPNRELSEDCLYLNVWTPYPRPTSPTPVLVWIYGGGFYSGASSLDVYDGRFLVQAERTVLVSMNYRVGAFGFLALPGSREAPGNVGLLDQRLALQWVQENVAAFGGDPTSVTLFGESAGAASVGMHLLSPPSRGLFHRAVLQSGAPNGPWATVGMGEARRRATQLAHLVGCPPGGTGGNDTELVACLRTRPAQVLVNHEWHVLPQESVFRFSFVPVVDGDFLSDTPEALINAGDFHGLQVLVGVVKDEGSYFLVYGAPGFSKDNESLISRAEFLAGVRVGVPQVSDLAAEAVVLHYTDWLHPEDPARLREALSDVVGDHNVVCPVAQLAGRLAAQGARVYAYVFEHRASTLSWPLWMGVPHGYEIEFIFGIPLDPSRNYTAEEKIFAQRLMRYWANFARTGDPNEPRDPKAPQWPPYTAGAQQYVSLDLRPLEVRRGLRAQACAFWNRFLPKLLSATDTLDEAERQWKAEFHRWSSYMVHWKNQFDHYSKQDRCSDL
Remember, log10 of IC50, in nM.

// query Name the recorded log10 IC50 for COc1ccccc1CN(CCCCCCNC1=CC(=O)C(NCCCCCCN(Cc2ccccc2OC)C(C)C)=CC1=O)C(C)C .
// result 1.11

// query Name the recorded log10 IC50 for CCN(CCCCCCNC1=CC(=O)C(NCCCCCCN(CC)Cc2cccnc2)=CC1=O)Cc1cccnc1 .
// result 2.12

// query Name the recorded log10 IC50 for CCN(CCCCCCNC1=C(c2ccccc2)C(=O)C(NCCCCCCN(CC)Cc2ccccc2OC)=C(c2ccccc2)C1=O)Cc1ccccc1OC .
// result 2.09

// query Name the recorded log10 IC50 for CCN(CCCCCCNC1=CC(=O)C(NCCCCCCN(CC)Cc2ccccc2C)=CC1=O)Cc1ccccc1C .
// result 1.86

// query Name the recorded log10 IC50 for CCN(CCCCCCNC1=CC(=O)C(NCCCCCCN(CC)Cc2ccccn2)=CC1=O)Cc1ccccn1 .
// result 2.10

// query Name the recorded log10 IC50 for CCN(CCCCNC1=CC(=O)C(NCCCCN(CC)Cc2ccccc2OC)=CC1=O)Cc1ccccc1OC .
// result 1.13

* * *

Parameter 'readout' = pIC50; parameter 'system' = Cholinesterase (Homo sapiens, UniProt P06276).
As a rule, pIC50 stands for the negative log10 of the concentration, concentration in M.

- smiles.record: "CCN(CCCCCCNC1=CC(=O)C(NCCCCCCN(CC)Cc2ccco2)=CC1=O)Cc1ccco1"
  result: 5.47
- smiles.record: "CCN(CCCCCNC1=CC(=O)C(NCCCCCN(CC)Cc2ccccc2OC)=CC1=O)Cc1ccccc1OC"
  result: 5.46
- smiles.record: "CCN(CCCCCCNC1=CC(=O)C(NCCCCCCN(CC)Cc2ccncc2)=CC1=O)Cc1ccncc1"
  result: 4.15

// query Recall the recorded pIC50 for CCN(CCCCCCNC1=CC(=O)C(NCCCCCCN(CC)Cc2ccccc2C)=CC1=O)Cc1ccccc1C with Cholinesterase (Homo sapiens, UniProt P06276) and state it.
// result 5.68
